test: In vivo drug release / pharmacokinetics, plasma galantamine by HPLC-ESI-MS/MS; design: species or system Sprague-Dawley (SD) rats; details: Sprague-Dawley, rat, plasma, po, 24 mg/kg
readout: Cmax (ng/mL)
Please give a number only; it is taken to be in ng/mL.

Provide one value: measured Cmax of COc1ccc2c3c1O[C@H]1C[C@@H](O)C=C[C@@]31CCN(C)C2.COc1ccc2c3c1O[C@H]1C[C@@H](O)C=C[C@@]31CCN(C)C2.O=C(O)c1cc2ccccc2c(Cc2c(O)c(C(=O)O)cc3ccccc23)c1O [GLT-PM, galantamine pamoate]
119

---

Assay: Determination of solubility in different solvents (shaken 24 h, HPLC)
Format: physicochemical
Conditions: 25 °C, thermodynamic from solid, mean ± SD, n = 3, read-out: Solubility, methanol
Experimental: Then they were shaken for 24 h with 100 rpm at 25°C. At last, the supernatant was directly injected into HPLC after high speed centrifugation (3,000 rpm for 10 min).
Where a name gives a salt, the structure may show the parent alone.
The molecules listed here are annotated with their solubility at 24 h.
Numeric only. Scale: mg/mL

COc1ccc2c3c1O[C@H]1C[C@@H](O)C=C[C@@]31CCN(C)C2 [Galantamine hydrobromide, reference compound]	0.82

We now examine a further molecule.
Tell me measured solubility at 24 h for COc1ccc2c3c1O[C@H]1C[C@@H](O)C=C[C@@]31CCN(C)C2.COc1ccc2c3c1O[C@H]1C[C@@H](O)C=C[C@@]31CCN(C)C2.O=C(O)c1cc2ccccc2c(Cc2c(O)c(C(=O)O)cc3ccccc23)c1O [GLT-PM, galantamine pamoate] please.
1.01

---

assay: Determination of solubility in different solvents (shaken 24 h, HPLC); type: physicochemical; details: 25 °C, thermodynamic from solid, mean ± SD, n = 3, read-out: Solubility, dichloromethane
Structures can show the parent of a compound that is named as a salt.
readout: solubility at 24 h (µg/mL)
API: value field is a number in µg/mL; no unit string.

COc1ccc2c3c1O[C@H]1C[C@@H](O)C=C[C@@]31CCN(C)C2 [Galantamine hydrobromide, reference compound]	320

Respond only with solubility at 24 h recorded for COc1ccc2c3c1O[C@H]1C[C@@H](O)C=C[C@@]31CCN(C)C2.COc1ccc2c3c1O[C@H]1C[C@@H](O)C=C[C@@]31CCN(C)C2.O=C(O)c1cc2ccccc2c(Cc2c(O)c(C(=O)O)cc3ccccc23)c1O [GLT-PM, galantamine pamoate]
8720

---

experiment: In vivo drug release / pharmacokinetics, plasma galantamine by HPLC-ESI-MS/MS; set-up: species or system Sprague-Dawley (SD) rats; details: Sprague-Dawley, rat, plasma, po, 24 mg/kg
readout: half-life (h)
Return type: number; implicit unit h.

Query half-life for COc1ccc2c3c1O[C@H]1C[C@@H](O)C=C[C@@]31CCN(C)C2.COc1ccc2c3c1O[C@H]1C[C@@H](O)C=C[C@@]31CCN(C)C2.O=C(O)c1cc2ccccc2c(Cc2c(O)c(C(=O)O)cc3ccccc23)c1O [GLT-PM, galantamine pamoate]
4.32

---

test: Determination of solubility in different solvents (shaken 24 h, HPLC); type: physicochemical; settings: 25 °C, thermodynamic from solid, mean ± SD, n = 3, read-out: Solubility, benzyl alcohol
Where a name gives a salt, the structure may show the parent alone.
// solubility at 24 h lookup, one value per entry
Hi! Could you send only the number? It should be in mg/mL, unit omitted.

Given the compound COc1ccc2c3c1O[C@H]1C[C@@H](O)C=C[C@@]31CCN(C)C2.COc1ccc2c3c1O[C@H]1C[C@@H](O)C=C[C@@]31CCN(C)C2.O=C(O)c1cc2ccccc2c(Cc2c(O)c(C(=O)O)cc3ccccc23)c1O [GLT-PM, galantamine pamoate] , write its reported solubility at 24 h.
357

Specify reported solubility at 24 h for the compound shown: COc1ccc2c3c1O[C@H]1C[C@@H](O)C=C[C@@]31CCN(C)C2 [Galantamine hydrobromide, reference compound]
1.57

---

assay: In vivo drug release / pharmacokinetics, plasma galantamine by HPLC-ESI-MS/MS; parameters: species or system Sprague-Dawley (SD) rats; conditions: Sprague-Dawley, rat, plasma, po, 24 mg/kg
readout: Tmax (min)
I only need the number, in min, no unit after it.

Given the compound COc1ccc2c3c1O[C@H]1C[C@@H](O)C=C[C@@]31CCN(C)C2.COc1ccc2c3c1O[C@H]1C[C@@H](O)C=C[C@@]31CCN(C)C2.O=C(O)c1cc2ccccc2c(Cc2c(O)c(C(=O)O)cc3ccccc23)c1O [GLT-PM, galantamine pamoate] , write its reported Tmax.
57.6

---

assay: Determination of solubility in different solvents (shaken 24 h, HPLC); format: physicochemical; conditions: 25 °C, thermodynamic from solid, mean ± SD, n = 3, read-out: Solubility, deionized water
Where a name gives a salt, the structure may show the parent alone.
solubility at 24 h listing for selected molecules.
Your answer should be a plain number; it is taken to be in µg/mL.

COc1ccc2c3c1O[C@H]1C[C@@H](O)C=C[C@@]31CCN(C)C2.COc1ccc2c3c1O[C@H]1C[C@@H](O)C=C[C@@]31CCN(C)C2.O=C(O)c1cc2ccccc2c(Cc2c(O)c(C(=O)O)cc3ccccc23)c1O [GLT-PM, galantamine pamoate]	200

API: the following record is the query input.
Fill in solubility at 24 h for record COc1ccc2c3c1O[C@H]1C[C@@H](O)C=C[C@@]31CCN(C)C2 [Galantamine hydrobromide, reference compound]
4320
